- experiment description: Beagle PK (pharmacokinetics)
- Format: in vivo, beagle dogs
- condition description: whole blood; Beagle dog, IV 1 mg/kg, 7 hr; read-out: Blood drug concentration
In this section, each of the compounds is paired with its reported concentration at 7 h.
The reply should contain only the number, in ng/mL.

compound	quantity measured	val
CC(C)(O)COc1ccc(F)c(-c2ccnc(N3CCC(C(=O)N4N=CC[C@H]4c4cc(F)cc(F)c4)CC3)c2)c1 (racemic)	concentration at 7 h	133

Here's the next entry for you.
**Query** Given the compound O=C(C1CCN(c2cc(-c3cc(OCCCO)ccc3F)ccn2)CC1)N1N=CCC1c1cc(F)cc(F)c1 (racemic) , what is its reported concentration at 7 h?
**Result** 10

* * *

- experiment description: Mouse PK&BBB (pharmacokinetics and brain penetration)
- Format: in vivo, CD-1 mice
- condition description: CD-1, mouse, whole blood, po, 20 mg/kg, PO 20 mg/kg, whole blood, 2 h after administration, read-out: Blood drug concentration
quantity measured: concentration at 2 h (ng/mL)
Value expressed in ng/mL; do not type the unit.

**Query** Endpoint output: concentration at 2 h of O=C(C1CCN(c2cc(-c3cc(OCCCO)ccc3F)ccn2)CC1)N1N=CC[C@H]1c1cc(F)cc(F)c1 (racemic) . Value?
**Result** 132

* * *

- experiment description: Beagle PK (pharmacokinetics)
- Type: in vivo, beagle dogs
- condition description: whole blood; Beagle dog, IV 1 mg/kg
- Experimental: In this assay, the pharmacokinetic characteristics and ability to penetrate the blood-brain barrier of the compounds of the present application were assayed after administration of some of the compounds of the present application to SD rats, CD-1 mice or beagle dogs by single oral administration and intravenous injection. 1. […] Pharmacokinetic parameters were calculated using WinNonlin software. […]
Catalogue of AUC(0-inf) readings, one per entry.
Entry rule: numbers only, all in ng·h/mL.

compound	AUC(0-inf) (ng·h/mL)
CC(C)(O)COc1ccc(F)c(-c2ccnc(N3CCC(C(=O)N4N=CC[C@H]4c4cc(F)cc(F)c4)CC3)c2)c1 (racemic)	3380

**Query** Which AUC(0-inf) is listed for O=C(C1CCN(c2cc(-c3cc(OCCCO)ccc3F)ccn2)CC1)N1N=CCC1c1cc(F)cc(F)c1 (racemic) ?
**Result** 699

* * *

# concentration at 24 h annotations
- experiment description: Rat PK&BBB (pharmacokinetics and brain penetration)
- Format: in vivo, SD rats
- condition description: Sprague-Dawley, rat, whole blood, po, 30 mg/kg, PO 30 mg/kg, 24 hr, read-out: Blood drug concentration
Provide the measurement as a number trailed by its unit.

For orientation, consider the following solved cases.
molecule	val
O=C(C1CCN(c2cc(-c3cc(OCCCO)ccc3F)ccn2)CC1)N1N=CC[C@H]1c1cc(F)cc(F)c1 (racemic) [Example 40]	0.93 ng/mL
CC(C)(O)COc1ccc(F)c(-c2ccnc(N3CCC(C(=O)N4N=CC[C@H]4c4cc(F)cc(F)c4)CC3)c2)c1 (racemic) [Example 42]	237 ng/mL

**Query** Dear colleague, I am looking for the recorded concentration at 24 h of the following molecule: O=C(C1CCN(c2cc(-c3cc(OCCCO)ccc3F)ccn2)CC1)N1N=CCC1c1cc(F)cc(F)c1 (racemic) [Example 18]
**Result** 0.557 ng/mL
